- procedure-summary: Plasma level of ciclesonide and C21-C21-desisobutyrylciclesonide (HPLC-MS/MS), 2nd ciclesonide study
- experimental-conditions: horse, plasma, inhaled, 1687.5 μg/horse, Ciclesonide concentration (plasma), ciclesonide 1687.5 μg (nozzle B) twice daily per inhalation; day 1; 4 h
measure: concentration at 4 h

(Q) Data request, read-out concentration at 4 h, for CC(C)C(=O)OCC(=O)[C@@]12O[C@H](C3CCCCC3)O[C@@H]1C[C@H]1[C@@H]3CCC4=CC(=O)C=C[C@]4(C)[C@H]3[C@@H](O)C[C@@]12C [ciclesonide]
(A) < 0.5 nM

====

- procedure-summary: Plasma level of ciclesonide and C21-C21-desisobutyrylciclesonide (HPLC-MS/MS), 2nd ciclesonide study
- experimental-conditions: horse, plasma, inhaled, 1687.5 μg/horse, Ciclesonide concentration (plasma), ciclesonide 1687.5 μg (nozzle B) twice daily per inhalation; day 1; 1 h
measure: concentration at 1 h

(Q) Data request, read-out concentration at 1 h, for CC(C)C(=O)OCC(=O)[C@@]12O[C@H](C3CCCCC3)O[C@@H]1C[C@H]1[C@@H]3CCC4=CC(=O)C=C[C@]4(C)[C@H]3[C@@H](O)C[C@@]12C [ciclesonide]
(A) < 0.5 nM

====

- procedure-summary: Plasma level of ciclesonide and C21-C21-desisobutyrylciclesonide (HPLC-MS/MS), 2nd ciclesonide study
- experimental-conditions: horse, plasma, inhaled, 1687.5 μg/horse, Ciclesonide concentration (plasma), ciclesonide 1687.5 μg (nozzle B) twice daily per inhalation; day 11; 1 h
measure: concentration at 1 h

(Q) Data request, read-out concentration at 1 h, for CC(C)C(=O)OCC(=O)[C@@]12O[C@H](C3CCCCC3)O[C@@H]1C[C@H]1[C@@H]3CCC4=CC(=O)C=C[C@]4(C)[C@H]3[C@@H](O)C[C@@]12C [ciclesonide]
(A) < 0.5 nM

====

- procedure-summary: in vivo
- experimental-conditions: horse, concentration of C21-C21-desisobutyrylciclesonide in plasma
measure: concentration at 4 h

(Q) Data request, read-out concentration at 4 h, for C[C@]12C=CC(=O)C=C1CC[C@@H]1[C@@H]2[C@@H](O)C[C@@]2(C)[C@H]1C[C@H]1O[C@@H](C3CCCCC3)O[C@]12C(=O)CO [C21-C21-desisobutyrylciclesonide]
(A) < 0.25 nM

====

- procedure-summary: Plasma level of ciclesonide and C21-C21-desisobutyrylciclesonide (HPLC-MS/MS), 2nd ciclesonide study
- experimental-conditions: horse, plasma, inhaled, 1687.5 μg/horse, Ciclesonide concentration (plasma), ciclesonide 1687.5 μg (nozzle B) twice daily per inhalation; day 1; 10 min
measure: concentration at 10 min (nM)
Answers are plain numbers, in nM.

(Q) Data request, read-out concentration at 10 min, for CC(C)C(=O)OCC(=O)[C@@]12O[C@H](C3CCCCC3)O[C@@H]1C[C@H]1[C@@H]3CCC4=CC(=O)C=C[C@]4(C)[C@H]3[C@@H](O)C[C@@]12C [ciclesonide]
(A) 0.87

====

- procedure-summary: Plasma level of ciclesonide and C21-C21-desisobutyrylciclesonide (HPLC-MS/MS), 2nd ciclesonide study
- experimental-conditions: horse, plasma, inhaled, 2700 μg/horse, Ciclesonide concentration (plasma), ciclesonide 2700 μg A (nozzle A) twice daily per inhalation; day 11; 0 min
measure: concentration at 0 min

(Q) Data request, read-out concentration at 0 min, for CC(C)C(=O)OCC(=O)[C@@]12O[C@H](C3CCCCC3)O[C@@H]1C[C@H]1[C@@H]3CCC4=CC(=O)C=C[C@]4(C)[C@H]3[C@@H](O)C[C@@]12C [ciclesonide]
(A) < 0.5 nM
